Tested on: 422866-222-R5-J1-PDC spheroids with HUVEC/MSC, viability;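 also: spheroids exposed to compounds for seven days before reading; percent viability relative to DMSO vehicle control taken as 100%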
Assay: Anticancer human tumor 422866-222-R5-J1-PDC patient-derived pancreatic adenocarcinoma cell line growth inhibition [GQUAD]
Details: second compound 3.16 µM; first compound 0.1 µM; active compounds read low
Binarize viability, T/C at 80%; below is true (1), at or above is false (0).

Q: Hi there! Is viability, T/C for O=C(c1cc(Cc2n[nH]c(=O)c3ccccc23)ccc1F)N1CCN(C(=O)C2CC2)CC1 + Cc1[nH]c2ccc(F)cc2c1-c1nc2c3cccnc3c3ncccc3c2[nH]1 below 80%, do you know?
Ans: false (0)

Q: Hi there! Is viability, T/C for CC(C)(O)C1CCC(Nc2ccc3ncc(-c4cccc(C(F)(F)F)c4)n3n2)CC1 (stereo not given) + CN(C)c1ccc(Nc2c3ccc(NC(=O)CCN4CCCC4)cc3nc3cc(NC(=O)CCN4CCCC4)ccc23)cc1 below 80%, do you know?
Ans: true (1)

Q: Hi there! Is viability, T/C for C#Cc1c(F)ccc2cc(O)cc(-c3ncc4c(N5CC6CCC(C5)N6)nc(OCC56CCCN5CC(F)C6)nc4c3F)c12 (stereo not given) + CN(C)c1ccc(Nc2c3ccc(NC(=O)CCN4CCCC4)cc3nc3cc(NC(=O)CCN4CCCC4)ccc23)cc1 below 80%, do you know?
Ans: false (0)

Q: Hi there! Is viability, T/C for C=CCn1c(=O)c2cnc(Nc3ccc(N4CCN(C)CC4)cc3)nc2n1-c1cccc(C(C)(C)O)n1 + Cc1cnc(CNC(=O)c2c(=O)c3ccc(N4CCCN(C)CC4)nc3n3c2sc2ccccc23)cn1 below 80%, do you know?
Ans: true (1)

Q: Hi there! Is viability, T/C for O=c1[nH]cc(F)c(=O)[nH]1 + Cc1cnc(CNC(=O)c2c(=O)c3ccc(N4CCCN(C)CC4)nc3n3c2sc2ccccc23)cn1 below 80%, do you know?
Ans: false (0)

Q: Hi there! Is viability, T/C for COc1cccc2c1C(=O)c1c(O)c3c(c(O)c1C2=O)CC(O)(C(=O)CO)CC3OC1CC(N)C(O)C(C)O1 (stereo not given) + CN(C)c1ccc(Nc2c3ccc(NC(=O)CCN4CCCC4)cc3nc3cc(NC(=O)CCN4CCCC4)ccc23)cc1 below 80%, do you know?
Ans: true (1)

Q: Hi there! Is viability, T/C for CC1COCCN1c1cc(C2(O)CC3CCC(C2)O3)c2cnn(-c3ccn[nH]3)c2n1 (stereo not given) + CN(C)c1ccc(Nc2c3ccc(NC(=O)CCN4CCCC4)cc3nc3cc(NC(=O)CCN4CCCC4)ccc23)cc1 below 80%, do you know?
Ans: true (1)
